Every entry's value here was drawn from paper PMC8922275.

- system under test: Pol IIIα (replicative DNA polymerase) (Escherichia coli, UniProt P10443 1-1160)
- Sequence (P10443 whole entry): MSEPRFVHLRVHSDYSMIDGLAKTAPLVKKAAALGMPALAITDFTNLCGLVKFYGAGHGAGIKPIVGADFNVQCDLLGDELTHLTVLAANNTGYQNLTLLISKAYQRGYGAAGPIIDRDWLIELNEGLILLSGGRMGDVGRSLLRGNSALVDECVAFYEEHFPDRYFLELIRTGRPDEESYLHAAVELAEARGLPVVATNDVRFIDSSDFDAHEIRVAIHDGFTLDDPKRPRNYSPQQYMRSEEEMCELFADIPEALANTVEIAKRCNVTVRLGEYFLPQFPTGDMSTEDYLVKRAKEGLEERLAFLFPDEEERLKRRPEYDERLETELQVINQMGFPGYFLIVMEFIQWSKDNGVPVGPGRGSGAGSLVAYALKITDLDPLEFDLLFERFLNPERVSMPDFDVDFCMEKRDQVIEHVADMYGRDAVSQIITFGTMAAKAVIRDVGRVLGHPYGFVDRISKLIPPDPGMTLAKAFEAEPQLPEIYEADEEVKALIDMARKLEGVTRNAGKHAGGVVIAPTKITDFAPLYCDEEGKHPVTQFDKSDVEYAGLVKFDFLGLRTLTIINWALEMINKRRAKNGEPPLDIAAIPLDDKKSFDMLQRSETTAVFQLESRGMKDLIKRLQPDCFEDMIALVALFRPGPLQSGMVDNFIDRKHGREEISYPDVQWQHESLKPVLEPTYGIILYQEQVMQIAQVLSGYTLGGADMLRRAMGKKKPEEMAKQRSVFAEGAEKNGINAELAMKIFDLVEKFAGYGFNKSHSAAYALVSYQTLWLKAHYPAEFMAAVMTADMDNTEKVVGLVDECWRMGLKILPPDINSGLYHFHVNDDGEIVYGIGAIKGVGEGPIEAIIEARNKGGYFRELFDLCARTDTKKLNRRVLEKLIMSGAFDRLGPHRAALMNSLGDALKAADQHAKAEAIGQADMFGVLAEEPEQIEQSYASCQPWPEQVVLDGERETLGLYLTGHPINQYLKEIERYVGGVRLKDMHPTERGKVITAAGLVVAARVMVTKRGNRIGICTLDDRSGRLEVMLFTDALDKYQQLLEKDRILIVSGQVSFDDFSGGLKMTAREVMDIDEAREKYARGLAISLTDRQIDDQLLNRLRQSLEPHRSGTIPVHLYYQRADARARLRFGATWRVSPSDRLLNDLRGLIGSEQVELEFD
- protocol description: fluorescence anisotropy; Anisotropy: 5 nM DNA, 25 mM HEPES pH 7.5, 50 mM potassium glutamate, 2 mM DTT, 0.5 mg/mL BSA, 24 °C. Cryo-EM: 20 mM PIPES pH 7.0, 50 mM potassium glutamate, 5 mM MgCl2, 2 mM DTT, 0.01% Tween-20
- stated conditions: protein: recombinant; label: 5'-Cy3 on primer (strand 1); 24 bp duplex, 5' overhang 30 nt on template
property measured: Kd (µM)
Numbers only, in µM.

Kindly note the recorded Kd for primed DNA substrate (anisotropy) (dsDNA) DNA 1: GGTAACGCCAGGGTTTTCCCAGTC DNA 2: CGCTCACTGGCCGTCGTTTTACAACGTCGTGACTGGGAAAACCCTGGCGTTACC , which is 12
